# PROTOCOL_SUMMARY: logP by HPLC on reversed-phase columns (C 18), EEC directive 79/831 Annex V.A8
# Format: physicochemical
# MEASUREMENT_CONTEXT: LC-MS, neutral range, pH 7.8, 0.001 molar aqueous ammonium hydrogencarbonate and acetonitrile
# Method: The logP values were measured according to EEC directive 79/831 Annex V.A8 by HPLC (High Performance Liquid Chromatography) on reversed-phase columns (C 18), using the methods below: ^[a] […] The calibration is effected with unbranched alkan-2-ones (having 3 to 16 carbon atoms) with known logP values (logP values determined on the basis of the retention times by linear interpolation between two successive alkanones).
Measured Log P [b], listed per entry.

The examples below pair each entry with its known result.
- COMPOUND: "C=CCOc1cccc(Cl)c1C1CC(c2csc(C3CCN(C(=O)Nc4cc(C)ccc4C)CC3)n2)=NO1 (racemic)"
  EXPERIMENTAL_RESULT: "3.91[b]"
- COMPOUND: "C#CCOc1cc(Cl)ccc1C1CC(c2csc(C3CCN(C(=O)Cn4nc(C(F)F)cc4C)CC3)n2)=NO1 (stereo not shown)"
  EXPERIMENTAL_RESULT: "3.36[b]"
- COMPOUND: "C=CCOc1ccccc1C1CC(c2csc(C3CCN(C(=O)Cn4nc(C)cc4C(F)F)CC3)n2)=NO1 (stereo not shown)"
  EXPERIMENTAL_RESULT: "3.33[b]"
- COMPOUND: "C#CCOc1cccc(C2CC(c3csc(C4CCN(C(=O)Cn5nc(C(F)(F)F)cc5C)CC4)n3)=NO2)c1 (stereo not shown)"
  EXPERIMENTAL_RESULT: "3.3[b]"
- COMPOUND: "C#CCOc1ccccc1C1CC(c2csc(C3CCN(C(=O)Nc4cc(C)ccc4C)CC3)n2)=NO1 (racemic)"
  EXPERIMENTAL_RESULT: "3.41[b]"

// query Consider the compound shown here: Cc1cc(C(F)(F)F)nn1CC(=O)N1CCC(c2nc(C3=NOC(c4c(Cl)cccc4OC(=O)C4CC4)C3)cs2)CC1 (racemic) What is its recorded Log P [b]?
// result 3.64[b]

// query Now consider COCCOc1ccccc1C1CC(c2csc(C3CCN(C(=O)Cn4nc(C(F)(F)F)cc4C)CC3)n2)=NO1 (racemic) .
// result 3.25[b]

----------
# PROTOCOL_SUMMARY: logP by HPLC on reversed-phase columns (C 18), EEC directive 79/831 Annex V.A8
# Format: physicochemical
# MEASUREMENT_CONTEXT: LC-MS, acidic range, pH 2.7, 0.1% aqueous formic acid and acetonitrile
Listing: Log P [a] of selected compounds

// below: answered compounds
- COMPOUND: "C=CCOc1ccccc1C1CC(c2csc(C3CCN(C(=O)Cn4nc(C(F)(F)F)cc4C)CC3)n2)=NO1 (stereo not shown) [Ex. 30]"
  Log P [a]: "3.86[a];"
- COMPOUND: "C=CCOc1cccc(F)c1C1CC(c2csc(C3CCN(C(=O)Cn4nc(C(F)(F)F)cc4C)CC3)n2)=NO1 (racemic) [Ex. 51]"
  Log P [a]: "3.7[a];"
- COMPOUND: "Cc1cc(C(F)(F)F)nn1CC(=O)N1CCC(c2nc(C3=NOC(c4ccccc4CS(C)(=O)=O)C3)cs2)CC1 (racemic) [Ex. 34]"
  Log P [a]: "2.6[a]"

// query Value lookup for Log P [a]; key = C=CCOc1cccc(Cl)c1C1CC(c2csc(C3CCN(C(=O)Nc4cc(Cl)ccc4C)CC3)n2)=NO1 (racemic) [Ex. 39]
// result 4.21[a];
